Overview of reported BT474 pHER3 % inhibition across a group of binders:
# measuredOn: human HER3 endogenously expressed on human cancer cells (SK-Br-3, BT-474, MCF7) (human, UniProt P21860 20-1342)
# assayInfo: cell-based or functional assay
Record the value in %, omitting the unit from your answer.

| binder | unitOfMeasurement | BT474 pHER3 % inhibition |
| --- | --- | --- |
| MOR13654 (antibody, human IgG1, lambda, V domains shown, Tested as IgG) VH: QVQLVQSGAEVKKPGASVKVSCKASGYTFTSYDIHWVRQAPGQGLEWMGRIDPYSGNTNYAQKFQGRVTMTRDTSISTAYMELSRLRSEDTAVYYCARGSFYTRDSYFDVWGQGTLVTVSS VL: DIALTQPASVSGSPGQSITISCTGTSSDVGTYNQVSWYQQHPGKAPKLMIYGVSKRPSGVSNRFSGSKSGNTASLTISGLQAEDEADYYCQSRGEYRPGWVFGGGTKLTVLG | % | 61 |
| MOR12922 (antibody, human IgG1, lambda, V domains shown) VH: QVQLVQSGAEVKKPGASVKVSCKASGYTFTGYYMHWVRQAPGQGLEWMGVIDPYSGWTEYAQKFQGRVTMTRDTSISTAYMELSRLRSEDTAVYYCARGSFYTRDSYFDVWGQGTLVTVSS VL: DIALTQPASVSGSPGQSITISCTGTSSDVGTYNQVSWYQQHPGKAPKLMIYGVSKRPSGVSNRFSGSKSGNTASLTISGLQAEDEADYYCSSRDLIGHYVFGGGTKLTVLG | % | 58 |
| MOR12615 (antibody, human IgG1, lambda, V domains shown, Tested as IgG) VH: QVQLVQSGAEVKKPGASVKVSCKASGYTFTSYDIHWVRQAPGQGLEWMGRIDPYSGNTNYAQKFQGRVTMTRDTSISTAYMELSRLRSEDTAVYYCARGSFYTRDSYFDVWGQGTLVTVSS VL: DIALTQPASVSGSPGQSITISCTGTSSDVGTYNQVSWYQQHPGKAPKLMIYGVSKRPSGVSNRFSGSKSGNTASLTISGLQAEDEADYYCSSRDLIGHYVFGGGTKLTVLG | % | 56 |

We next turn to a different binder, shown below.
Bench note: what BT474 pHER3 % inhibition did MOR12515 (antibody, human IgG1, lambda, V domains shown, Tested as IgG) VH: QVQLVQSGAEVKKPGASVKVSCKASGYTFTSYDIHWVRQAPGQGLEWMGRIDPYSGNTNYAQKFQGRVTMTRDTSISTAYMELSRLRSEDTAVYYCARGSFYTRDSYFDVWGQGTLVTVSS VL: DIALTQPASVSGSPGQSITISCTGTSSDVGTYNQVSWYQQHPGKAPKLMIYGVSKRPSGVSNRFSGSKSGNTASLTISGLQAEDEADYYCYSRDSPMDQVFGGGTKLTVLG show?
71
